- TEST_TARGET: biotinylated labeled human GPC3 protein (produced in-house) (human, UniProt P51654 25-559, limits assumed, biotinylated (Dojindo, Cat. No. LK03); sites not stated)
- MEASUREMENT_DESCRIPTION: ELISA, biotinylated human GPC3 protein
QUANTITY_NAME: OD450 at 0.0008 nM (OD450)
// return numeric value only (unit: OD450, not printed)

Example entries begin here.
BINDER: hAb007LH1L1a (antibody, human IgG1, V domains shown, Humanized F3.81.19; VH H1 + VL L1a; expressed as human IgG1) VH: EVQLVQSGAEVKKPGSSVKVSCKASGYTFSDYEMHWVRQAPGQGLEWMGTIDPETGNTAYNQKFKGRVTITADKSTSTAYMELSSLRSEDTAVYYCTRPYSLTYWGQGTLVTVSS VL: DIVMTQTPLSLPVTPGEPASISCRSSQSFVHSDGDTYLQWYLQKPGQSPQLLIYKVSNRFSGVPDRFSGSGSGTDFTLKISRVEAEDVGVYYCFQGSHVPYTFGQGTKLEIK
OD450 at 0.0008 nM / OD450: 0.087
//
BINDER: hAb001H1aL1b (antibody, human IgG1, V domains shown, Humanized F2.169.2; VH H1a + VL L1b; expressed as human IgG1) VH: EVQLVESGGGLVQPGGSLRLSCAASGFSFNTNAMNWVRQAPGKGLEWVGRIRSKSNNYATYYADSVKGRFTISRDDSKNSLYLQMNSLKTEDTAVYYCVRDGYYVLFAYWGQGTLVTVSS VL: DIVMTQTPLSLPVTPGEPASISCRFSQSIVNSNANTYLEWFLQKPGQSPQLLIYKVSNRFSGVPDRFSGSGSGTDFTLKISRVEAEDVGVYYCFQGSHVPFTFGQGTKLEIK
OD450 at 0.0008 nM / OD450: 0.174
//
BINDER: hAb005LH1L1a (antibody, human IgG1, V domains shown, Humanized F3.54.12; VH H1 + VL L1a; expressed as human IgG1) VH: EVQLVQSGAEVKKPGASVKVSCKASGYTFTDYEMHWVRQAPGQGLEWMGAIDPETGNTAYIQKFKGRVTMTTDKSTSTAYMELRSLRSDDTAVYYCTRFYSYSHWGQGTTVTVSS VL: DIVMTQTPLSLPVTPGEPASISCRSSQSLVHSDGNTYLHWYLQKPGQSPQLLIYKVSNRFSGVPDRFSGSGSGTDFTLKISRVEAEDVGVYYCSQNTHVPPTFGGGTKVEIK
OD450 at 0.0008 nM / OD450: 0.053
//
BINDER: hAb003LH1L1a (antibody, human IgG1, V domains shown, Humanized F2.154.1; VH H1 + VL L1a; expressed as human IgG1) VH: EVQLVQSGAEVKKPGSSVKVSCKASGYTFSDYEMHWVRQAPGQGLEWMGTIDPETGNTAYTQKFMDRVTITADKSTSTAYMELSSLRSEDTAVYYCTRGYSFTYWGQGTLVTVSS VL: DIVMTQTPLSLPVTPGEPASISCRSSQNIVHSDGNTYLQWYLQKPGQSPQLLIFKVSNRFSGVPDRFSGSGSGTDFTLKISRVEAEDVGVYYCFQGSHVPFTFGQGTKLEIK
OD450 at 0.0008 nM / OD450: 0.082
//
BINDER: hAb001H1L1 (antibody, human IgG1, V domains shown, Humanized F2.169.2; VH H1 + VL L1; expressed as human IgG1) VH: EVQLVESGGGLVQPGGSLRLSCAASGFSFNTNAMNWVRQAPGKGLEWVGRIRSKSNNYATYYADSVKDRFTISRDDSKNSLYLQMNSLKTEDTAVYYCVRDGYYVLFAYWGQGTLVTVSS VL: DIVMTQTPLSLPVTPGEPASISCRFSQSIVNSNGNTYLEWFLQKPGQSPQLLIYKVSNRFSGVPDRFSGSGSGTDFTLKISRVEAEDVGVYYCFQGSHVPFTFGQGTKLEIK
OD450 at 0.0008 nM / OD450: 0.162
//
BINDER: hAb003LH3L1a (antibody, human IgG1, V domains shown, Humanized F2.154.1; VH H3 + VL L1a; expressed as human IgG1) VH: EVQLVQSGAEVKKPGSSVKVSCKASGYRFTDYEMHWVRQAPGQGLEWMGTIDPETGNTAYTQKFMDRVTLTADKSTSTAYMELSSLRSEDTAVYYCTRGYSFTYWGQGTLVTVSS VL: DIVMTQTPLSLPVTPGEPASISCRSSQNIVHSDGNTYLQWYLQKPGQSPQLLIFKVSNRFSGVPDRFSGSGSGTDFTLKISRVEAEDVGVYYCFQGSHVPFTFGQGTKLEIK
OD450 at 0.0008 nM / OD450: 0.086
//
BINDER: hAb005LH2L1b (antibody, human IgG1, V domains shown, Humanized F3.54.12; VH H2 + VL L1b; expressed as human IgG1) VH: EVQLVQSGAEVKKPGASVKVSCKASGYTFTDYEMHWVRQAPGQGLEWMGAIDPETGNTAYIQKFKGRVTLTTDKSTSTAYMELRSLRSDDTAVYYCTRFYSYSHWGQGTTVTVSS VL: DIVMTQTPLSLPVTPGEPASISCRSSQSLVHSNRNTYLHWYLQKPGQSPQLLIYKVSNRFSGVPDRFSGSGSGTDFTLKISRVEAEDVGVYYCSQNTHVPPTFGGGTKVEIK
OD450 at 0.0008 nM / OD450: 0.074
//
BINDER: hAb001H2L1 (antibody, human IgG1, V domains shown, Humanized F2.169.2; VH H2 + VL L1; expressed as human IgG1) VH: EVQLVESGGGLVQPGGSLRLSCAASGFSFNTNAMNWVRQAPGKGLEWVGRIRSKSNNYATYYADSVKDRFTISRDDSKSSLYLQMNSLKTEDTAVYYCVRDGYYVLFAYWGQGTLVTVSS VL: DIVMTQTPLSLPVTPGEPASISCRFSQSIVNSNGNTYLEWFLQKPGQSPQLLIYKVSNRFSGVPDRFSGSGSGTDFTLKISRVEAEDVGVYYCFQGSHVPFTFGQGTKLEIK
OD450 at 0.0008 nM / OD450: 0.169

Query: OD450 at 0.0008 nM; subject: hAb005LH2L1a (antibody, human IgG1, V domains shown, Humanized F3.54.12; VH H2 + VL L1a; expressed as human IgG1) VH: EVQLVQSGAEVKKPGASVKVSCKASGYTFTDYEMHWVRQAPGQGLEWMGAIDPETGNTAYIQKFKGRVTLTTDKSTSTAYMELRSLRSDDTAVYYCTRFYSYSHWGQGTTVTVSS VL: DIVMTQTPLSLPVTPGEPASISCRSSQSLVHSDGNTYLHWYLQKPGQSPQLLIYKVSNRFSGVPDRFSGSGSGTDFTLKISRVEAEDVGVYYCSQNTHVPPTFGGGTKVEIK
0.049

Query: OD450 at 0.0008 nM; subject: hAb005LH2L1 (antibody, human IgG1, V domains shown, Humanized F3.54.12; VH H2 + VL L1; expressed as human IgG1) VH: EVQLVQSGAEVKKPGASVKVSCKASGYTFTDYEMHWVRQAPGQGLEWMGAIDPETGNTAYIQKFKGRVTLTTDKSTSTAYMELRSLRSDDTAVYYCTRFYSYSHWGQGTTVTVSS VL: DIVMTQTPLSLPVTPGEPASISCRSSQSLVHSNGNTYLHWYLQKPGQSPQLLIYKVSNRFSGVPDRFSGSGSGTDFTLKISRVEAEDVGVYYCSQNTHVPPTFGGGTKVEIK
0.083
